# tested system: T1, Monomeric 8-histidine tagged human EGFRvIII extracellular domain (human, UniProt P00533 298-645)
# T1 construct: Analyte in all SPR assays; not shown: 8-histidine tag
# test name: SPR, captured by anti-mouse Fc, 37 C
# key: entry, value: kon
Reply numerically in M⁻¹ s⁻¹, unit not repeated.

- binder: "21E11 (antibody, V domains shown, Hybridoma supernatant (AlivaMab mouse); captured/detected via mouse Fc) VH: QVTLKESGPVLVKPTETLTLTCTVSGFSLSNVRMGVSWIRQPPGKALEWFAHIFSSDEKSIRRSLRSRLTLSKDTSKSQVVLTMTNMDPVDTATYYCARDSSNYEGYFDFWGQGTLVTVSS VL: DMVVTQSPATLSVSPGERATLSCRASQSVGSDLAWYQQPPGQSPRLLIYGASTRATGVPARFSGSGSGTDFTLTITSLESEDFAVYYCQQYNDWPFTFGPGTKVDIK"
  kon, M⁻¹ s⁻¹: 66600

Now look at this one.
Incoming: So what does the record say about kon for 14C11 (antibody, V domains shown, Hybridoma supernatant (AlivaMab mouse); captured/detected via mouse Fc) VH: QVTLKESGPVLVKPTETLTLTCTVSGFSLNNARMGVSWIRQPPGKALEWFAHIFSTDEKSFRTSLRSRLTLSKDTSKSQVVLTMTNMDPVDTATYYCARDSSNYEGYFDYWGQGILVTVSS VL: EIVMTQSPATLSVSPGERATLSCRASQSVSNNLAWYQQKPGQAPRLLIYGASTRATGVPARFSGSDSGTEFSLTISSLQSEDFAVYFCQQYKDWPFTFGPGTKVEIK ?
Outgoing: 75500
